Recorded values, source ChEMBL document CHEMBL4346653.

- Species on record: Homo sapiens
- Assay Details: Selectivity index, ratio of Ki for displacement of [3H]PSB-11 from recombinant human A3 adenosine receptor expressed in CHO cell membranes to Ki for displacement of [3H]PSB-603 from recombinant human A2B adenosine receptor expressed in CHO cell membranes
Measurement Kind: Ratio Ki

Fill blank: measured Ratio Ki of the molecule `CCCn1c(=O)[nH]c2nc(-c3ccc(S(=O)(=O)N4CCN(c5cccc(Cl)c5)CC4)cc3)[nH]c2c1=O` is ____.
160

Fill blank: measured Ratio Ki of the molecule CCCn1c(=O)[nH]c2nc(-c3ccc(S(=O)(=O)N4CCN(C(C)c5ccccc5)CC4)cc3)[nH]c2c1=O (stereo not given) is ____.
> 120

Fill blank: measured Ratio Ki of the molecule `CCCn1c(=O)[nH]c2nc(-c3ccc(S(=O)(=O)N4CCN(c5ccc(OC)c(Cl)c5)CC4)cc3)[nH]c2c1=O` is ____.
> 2840

Fill blank: measured Ratio Ki of the molecule `CCCn1c(=O)[nH]c2nc(-c3ccc(S(=O)(=O)N4CCN(c5ccc(Cl)cc5F)CC4)cc3)[nH]c2c1=O` is ____.
> 500

Fill blank: measured Ratio Ki of the molecule `CCCn1c(=O)[nH]c2nc(-c3ccc(S(=O)(=O)N4CCN(c5ccccc5F)CC4)cc3)[nH]c2c1=O` is ____.
> 310

====

- Experimental System: Adenosine receptor A2a (Homo sapiens, UniProt P29274)
- Sequence (P29274 whole entry): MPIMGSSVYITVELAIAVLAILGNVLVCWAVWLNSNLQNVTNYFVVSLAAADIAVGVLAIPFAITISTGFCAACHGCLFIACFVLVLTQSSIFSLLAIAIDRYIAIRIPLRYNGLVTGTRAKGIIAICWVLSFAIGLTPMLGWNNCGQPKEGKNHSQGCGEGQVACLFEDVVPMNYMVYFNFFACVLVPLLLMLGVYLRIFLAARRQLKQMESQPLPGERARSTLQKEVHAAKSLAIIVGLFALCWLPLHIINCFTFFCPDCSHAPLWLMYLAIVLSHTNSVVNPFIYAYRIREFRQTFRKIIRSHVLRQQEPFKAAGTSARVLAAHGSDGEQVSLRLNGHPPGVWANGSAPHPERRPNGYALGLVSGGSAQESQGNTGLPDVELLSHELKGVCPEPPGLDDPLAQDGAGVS
- Assay Details: Displacement of [3H]MSX-2 from recombinant human A2A adenosine receptor expressed in CHO cell membranes at 1 uM measured after 30 mins in presence of adenosine deaminase by liquid scintillation counting method relative to control
Decide by inhibition: equal to or exceeding 30% means met, less means not met.

Dear colleague, could you confirm whether `CCCn1c(=O)[nH]c2nc(-c3ccc(S(=O)(=O)N4CCN(c5ccc(OC)c(Cl)c5)CC4)cc3)[nH]c2c1=O` has inhibition at or above 30%?
met

Dear colleague, could you confirm whether `CCCn1c(=O)c2[nH]c(-c3ccc(S(=O)(=O)N4CCN(c5ccc(Cl)cc5)CC4)cc3)nc2n(C)c1=O` has inhibition at or above 30%?
met

Dear colleague, could you confirm whether `CCCn1c(=O)[nH]c2nc(-c3ccc(S(=O)(=O)N4CCN(c5ccc(Cl)cc5F)CC4)cc3)[nH]c2c1=O` has inhibition at or above 30%?
not met

Dear colleague, could you confirm whether `CCCn1c(=O)[nH]c2nc(-c3ccc(S(=O)(=O)N4CCN(c5ccc(Br)cc5)CC4)cc3)[nH]c2c1=O` has inhibition at or above 30%?
met

Dear colleague, could you confirm whether CCCn1c(=O)[nH]c2nc(-c3ccc(S(=O)(=O)N4CCN(C(C)c5ccccc5)CC4)cc3)[nH]c2c1=O (stereo not drawn) has inhibition at or above 30%?
met

Dear colleague, could you confirm whether `CCCn1c(=O)[nH]c2nc(-c3ccc(S(=O)(=O)N4CCN(c5cccc(Br)c5)CC4)cc3)[nH]c2c1=O` has inhibition at or above 30%?
not met

Dear colleague, could you confirm whether `CCCn1c(=O)[nH]c2nc(-c3ccc(S(=O)(=O)N4CCN(c5ccc(C)cc5)CC4)cc3)[nH]c2c1=O` has inhibition at or above 30%?
met

====

- Species: Homo sapiens
- Assay Details: Selectivity index, ratio of Ki for displacement of [3H]CCPA from recombinant human A1 adenosine receptor expressed in CHO cell membranes to Ki for displacement of [3H]PSB-603 from recombinant human A2B adenosine receptor expressed in CHO cell membranes
Measurement Kind: Ratio Ki

Fill blank: measured Ratio Ki of the molecule `CCCn1c(=O)[nH]c2nc(-c3ccc(S(=O)(=O)N4CCN(c5cccc(Br)c5)CC4)cc3)[nH]c2c1=O` is ____.
> 4270

Fill blank: measured Ratio Ki of the molecule `CCCn1c(=O)[nH]c2nc(-c3ccc(S(=O)(=O)N4CCN(c5ccc(Br)cc5)CC4)cc3)[nH]c2c1=O` is ____.
> 12000

Fill blank: measured Ratio Ki of the molecule `CCCn1c(=O)[nH]c2nc(-c3ccc(S(=O)(=O)N4CCN(Cc5ccc(C(=O)O)cc5)CC4)cc3)[nH]c2c1=O` is ____.
10

Fill blank: measured Ratio Ki of the molecule `CCCn1c(=O)[nH]c2nc(-c3ccc(S(=O)(=O)N4CCN(Cc5ccc(Br)c(F)c5)CC4)cc3)[nH]c2c1=O` is ____.
690

Fill blank: measured Ratio Ki of the molecule `CCCn1c(=O)[nH]c2nc(-c3ccc(S(=O)(=O)N4CCN(c5cccc(F)c5)CC4)cc3)[nH]c2c1=O` is ____.
> 1580

Fill blank: measured Ratio Ki of the molecule `CCCn1c(=O)[nH]c2nc(-c3ccc(S(=O)(=O)N4CCN(c5ccc(OC)c(F)c5)CC4)cc3)[nH]c2c1=O` is ____.
> 800

Fill blank: measured Ratio Ki of the molecule `CCCn1c(=O)[nH]c2nc(-c3ccc(S(=O)(=O)N4CCN(c5ccc(I)cc5)CC4)cc3)[nH]c2c1=O` is ____.
> 6290

Fill blank: measured Ratio Ki of the molecule CCCn1c(=O)[nH]c2nc(-c3ccc(S(=O)(=O)N4CCN(C(C)c5ccccc5)CC4)cc3)[nH]c2c1=O (stereo not drawn) is ____.
> 120
